Origin of values: PubChem BioAssay AID1985

# Test system: S. Typhi PhoP-promoter GFP reporter, fluorescence, 4 h
# assayExplanation: PhoP regulon inhibitor project modified counter assay, GFP fluorescence readout, dose response (AID 1985)
pIC50: −log10 of the molar value.
Recorded pIC50 for the following compounds

Past entries and their recorded results:
Oc1c(Br)cc(Br)cc1C=Nc1ccc2[nH]ncc2c1; 4.31
O=C(/C=C/c1ccccc1Cl)Nc1cccc(O)c1; 4.21
O=C(Nc1cccnc1)c1cc(Br)c(Br)s1; 3.87
CCCOc1ccc(C(=O)NNC(=S)NC(=O)CC)cc1; 4.10
COc1ccc(Cl)cc1S(=O)(=O)N1CCN(C(=O)c2ccco2)CC1; 3.84

## Input What measured pIC50 goes with CCCCCCCCCCCCCCCC[N+](C)(C)CC ?
## Output 4.65

## Input What measured pIC50 goes with CN(C)CCNc1oc(COc2ccc(-c3ccccc3)cc2)nc1C#N ?
## Output 4.10

## Input What measured pIC50 goes with Cn1c(N/N=C/c2c[nH]c3ccccc23)nc2ccccc21 ?
## Output 3.95

## Input What measured pIC50 goes with CC1COc2c(N3CCN(C)CC3)c(F)cc3c(=O)c(C(=O)O)cn1c23 (stereo unspecified) ?
## Output > 6.64

## Input What measured pIC50 goes with O=C(Cn1cc[n+](CC(=O)c2ccc(Cl)cc2Cl)c1)c1ccc(Cl)cc1Cl ?
## Output 4.43

## Input What measured pIC50 goes with COc1c(N2CCNC(C)C2)c(F)cc2c(=O)c(C(=O)O)cn(C3CC3)c12 (stereo unspecified) ?
## Output > 6.64
